Attribution: patent US7612089B2

- target or system: human plasma protein factor Xa (Homo sapiens, UniProt P00742)
- Construct: The human plasma protein factor Xa was purchased
- Sequence (P00742 235-488 limits assumed): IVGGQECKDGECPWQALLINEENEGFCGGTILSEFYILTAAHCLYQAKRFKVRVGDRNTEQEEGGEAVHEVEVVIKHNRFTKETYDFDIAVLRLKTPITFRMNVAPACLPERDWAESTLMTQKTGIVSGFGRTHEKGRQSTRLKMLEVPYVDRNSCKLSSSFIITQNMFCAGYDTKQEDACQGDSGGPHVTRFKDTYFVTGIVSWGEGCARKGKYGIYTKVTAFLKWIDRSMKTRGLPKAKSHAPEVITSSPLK
- Sequence (P00742 41-179 partner limits assumed): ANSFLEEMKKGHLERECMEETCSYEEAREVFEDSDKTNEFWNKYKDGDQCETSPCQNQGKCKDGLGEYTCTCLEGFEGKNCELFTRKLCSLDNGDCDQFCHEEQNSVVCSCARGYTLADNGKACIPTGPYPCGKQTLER
- procedure details: Factor Xa IC50 determination (cleavage of paranitroanilide substrate S-2765)
- condition: fXa 1 nM, S2765 100 μM, Tris buffered saline pH 7.4, room temperature
readout label: IC50

# count of solved cases: 3
INSERT INTO results (molecule, measurement) VALUES
  ('O=C(Nc1ccc(-n2ccccc2=S)cc1)C1Cc2cc(O)ccc2CN1C(=O)Nc1ccc(Cl)cc1 (stereo not shown)', '≤ 100 nM'),
  ('CN1CCCN(c2ccc(NC(=O)C3Cc4ccccc4CN3C(=O)Nc3ccc(Cl)cc3)cc2)CC1 (stereo not shown)', '≤ 100 nM'),
  ('O=C(Nc1ccc(-n2ccccc2=O)cc1)[C@H]1Cc2ccccc2CN1C(=O)Nc1ccc(F)cc1', '≤ 100 nM');

Okay, next one:
Task item: Look up and state reported IC50 for COc1cc2c(cc1OC)CN(C(=O)Nc1ccc(Cl)cc1)[C@H](C(=O)Nc1ccc(C(=N)N3CCCC3)cc1)C2
Reply: 100 to 500 nM
